tgt: T1, IL10Rα and IL2Rγ on human primary cells (CD8 T cells, CD4 T cells, monocytes) (human) (UniProt Q13651)
T1 sequence (looked up) 1: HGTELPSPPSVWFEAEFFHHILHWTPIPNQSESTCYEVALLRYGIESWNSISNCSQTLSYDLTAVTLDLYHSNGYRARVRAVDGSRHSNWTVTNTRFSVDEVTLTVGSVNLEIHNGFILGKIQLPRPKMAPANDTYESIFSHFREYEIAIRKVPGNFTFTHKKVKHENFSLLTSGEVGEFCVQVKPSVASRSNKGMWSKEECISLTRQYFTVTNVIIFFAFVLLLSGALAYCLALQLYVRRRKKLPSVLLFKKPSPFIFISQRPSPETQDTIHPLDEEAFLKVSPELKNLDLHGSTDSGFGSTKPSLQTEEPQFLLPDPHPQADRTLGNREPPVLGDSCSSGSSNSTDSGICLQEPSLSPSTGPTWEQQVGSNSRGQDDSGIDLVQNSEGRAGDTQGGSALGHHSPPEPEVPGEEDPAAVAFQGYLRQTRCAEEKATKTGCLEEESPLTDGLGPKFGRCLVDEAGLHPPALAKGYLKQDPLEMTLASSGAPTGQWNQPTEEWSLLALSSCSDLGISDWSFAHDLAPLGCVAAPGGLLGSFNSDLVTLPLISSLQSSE
T1 sequence (looked up) 2: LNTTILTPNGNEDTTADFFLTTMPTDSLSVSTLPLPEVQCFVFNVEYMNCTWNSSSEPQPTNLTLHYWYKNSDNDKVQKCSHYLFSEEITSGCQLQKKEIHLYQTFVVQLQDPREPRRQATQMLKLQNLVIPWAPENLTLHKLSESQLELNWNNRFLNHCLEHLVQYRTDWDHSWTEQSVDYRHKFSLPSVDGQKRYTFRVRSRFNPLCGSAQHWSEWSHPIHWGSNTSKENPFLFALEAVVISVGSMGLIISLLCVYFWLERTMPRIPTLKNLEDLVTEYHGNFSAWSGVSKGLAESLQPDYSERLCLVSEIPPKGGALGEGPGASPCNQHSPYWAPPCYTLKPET
test.description: cell-based or functional assay
property: pSTAT3 (MFI) in CD8 T cells at 0.001 µM
// return numeric value only (unit: MFI, not printed)

Check out these entries, answers already filled in.
hIL10Ra_VHH14-hIL2Rg_VHH19, linker GGGSGGGS, tag his (bispecific antibody, not shown: small tags and cut ends) QVQLQESGGGSVQAGGSLRLSCGASGYTYSSYCMGWFRQVPGKEREGVAVIDSDGSTSYADSVKGRFTISKDNGKNTLYLQMNSLKPEDTAMYYCAADLGHYRPPCGVLYLGMDYWGKGTQVTVSSGGGSGGGSQVQLQESGGGSVQAGGSLRLSCTASGFTFDDREMNWYRQAPGNECELVSTISSDGSTYYADSVKGRFTISQDNAKNTVYLQMDSVKPEDTAVYYCAADFMIAIQAPGAGCWGQGTQVTVSS	7520
hIL10Ra_VHH14-hIL2Rg_VHH19, linker …, tag his (bispecific antibody, not shown: small tags and cut ends) QVQLQESGGGSVQAGGSLRLSCGASGYTYSSYCMGWFRQVPGKEREGVAVIDSDGSTSYADSVKGRFTISKDNGKNTLYLQMNSLKPEDTAMYYCAADLGHYRPPCGVLYLGMDYWGKGTQVTVSSGGSGGSGGSGQVQLQESGGGSVQAGGSLRLSCTASGFTFDDREMNWYRQAPGNECELVSTISSDGSTYYADSVKGRFTISQDNAKNTVYLQMDSVKPEDTAVYYCAADFMIAIQAPGAGCWGQGTQVTVSS	7520

If you can, please state the reported pSTAT3 (MFI) in CD8 T cells at 0.001 µM value of hIL10Ra_VHH14-hIL2Rg_VHH19, linker GGSGGS, tag his (bispecific antibody, not shown: small tags and cut ends) QVQLQESGGGSVQAGGSLRLSCGASGYTYSSYCMGWFRQVPGKEREGVAVIDSDGSTSYADSVKGRFTISKDNGKNTLYLQMNSLKPEDTAMYYCAADLGHYRPPCGVLYLGMDYWGKGTQVTVSSGGSGGSQVQLQESGGGSVQAGGSLRLSCTASGFTFDDREMNWYRQAPGNECELVSTISSDGSTYYADSVKGRFTISQDNAKNTVYLQMDSVKPEDTAVYYCAADFMIAIQAPGAGCWGQGTQVTVSS .
8500

Data origin, for the record: patent US20250163162A1
